Form field: self-splicing fitness (ln) (one value per entry).
Assay: self-splicing fitness, log relative to wild type (ln ratio); higher = more splicing; Tetrahymena group I intron in knt gene, E. coli kanamycin selection, DiMSum; sequences stand for … in CUCUCU…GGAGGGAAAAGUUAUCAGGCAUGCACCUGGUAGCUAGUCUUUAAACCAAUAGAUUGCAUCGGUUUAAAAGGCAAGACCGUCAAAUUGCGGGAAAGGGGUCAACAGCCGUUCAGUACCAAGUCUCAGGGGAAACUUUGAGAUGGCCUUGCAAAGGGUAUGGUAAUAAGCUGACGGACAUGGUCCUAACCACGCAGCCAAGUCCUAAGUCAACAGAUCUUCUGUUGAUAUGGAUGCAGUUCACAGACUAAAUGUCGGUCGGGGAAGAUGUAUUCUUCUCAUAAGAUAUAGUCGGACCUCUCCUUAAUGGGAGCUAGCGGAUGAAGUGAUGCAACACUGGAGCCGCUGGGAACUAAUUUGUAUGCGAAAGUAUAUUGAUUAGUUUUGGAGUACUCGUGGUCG;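 also: selection with 25 µg/mL kanamycin versus none on LB agar overnight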
Settings: 30 °C
No unit in the answer, please; the number alone is enough.

Example sequences with recorded self-splicing fitness (ln):
In [3]: df
Out[3]:
         entry_sequence           recorded_endpoint  test_result
0  GUCGAGCAAUAUUACGUAAA  self-splicing fitness (ln)        -2.73
1  GUGCAGCAAUAUUACGUUGA  self-splicing fitness (ln)        -1.49
2  GCUCAGCAAUAUUACGUUCU  self-splicing fitness (ln)       -0.649
3  AAUUAGCAAUAUUACGGCGU  self-splicing fitness (ln)       -0.085

Incoming: Please indicate self-splicing fitness (ln) recorded for CGCAAGCAAUAUUACGCAGG
Outgoing: -2.74

Incoming: Please indicate self-splicing fitness (ln) recorded for UCCUAGCAAUAUUACGUUUC
Outgoing: -2.36

Incoming: Please indicate self-splicing fitness (ln) recorded for GGUCAGCAAUAUUACGCGAU
Outgoing: -2.41

Incoming: Please indicate self-splicing fitness (ln) recorded for CGGGAGCAAUAUUACGGCAG
Outgoing: -2.71

###

Experiment: self-splicing fitness, log relative to wild type (ln ratio); higher = more splicing; Tetrahymena group I intron in knt gene, E. coli kanamycin selection, DiMSum; sequences stand for … in CUCUCU…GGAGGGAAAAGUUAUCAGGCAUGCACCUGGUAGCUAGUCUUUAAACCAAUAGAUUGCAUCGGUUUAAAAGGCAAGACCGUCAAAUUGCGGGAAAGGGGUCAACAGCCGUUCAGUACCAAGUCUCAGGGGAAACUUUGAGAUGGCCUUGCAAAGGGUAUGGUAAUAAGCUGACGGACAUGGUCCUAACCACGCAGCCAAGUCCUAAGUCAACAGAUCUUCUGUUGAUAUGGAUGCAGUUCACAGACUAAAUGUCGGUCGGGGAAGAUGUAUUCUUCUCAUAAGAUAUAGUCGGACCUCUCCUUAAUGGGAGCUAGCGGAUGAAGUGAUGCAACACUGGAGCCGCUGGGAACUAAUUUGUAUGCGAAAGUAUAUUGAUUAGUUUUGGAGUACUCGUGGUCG
Details: 37 °C
Category key, based on recorded self-splicing fitness (ln): one (below -2), two (-2 to below -1), three (-1 or more)

         entry_sequence  discrete_label
0  ACUCAGCAAUAUUACGGAAC             two

Incoming: Band for ACAUAGCAAUAUUACGGUGC ?
Outgoing: one

Incoming: Band for AUUCAGCAAUAUUACGACAC ?
Outgoing: three

Incoming: Band for GGGGAGCAAUAUUACGUUUU ?
Outgoing: one

Incoming: Band for GGCUAGCAAUAUUACGCGGA ?
Outgoing: three

Incoming: Band for UCUUAGCAAUAUUACGGAUA ?
Outgoing: one

Incoming: Band for UGGAAGCAAUAUUACGCAGA ?
Outgoing: three

Incoming: Band for GUCCAGCAAUAUUACGGUUG ?
Outgoing: three

Incoming: Band for AAUUAGCAAUAUUACGGCCG ?
Outgoing: three

Incoming: Band for CUUUAGCAAUAUUACGAUUA ?
Outgoing: two

Incoming: Band for CUGAAGCAAUAUUACGGAUU ?
Outgoing: one

Incoming: Band for UCACAGCAAUAUUACGAGCC ?
Outgoing: one

Incoming: Band for UUGGAGCAAUAUUACGCGAG ?
Outgoing: two

Incoming: Band for UCGAAGCAAUAUUACGCGGA ?
Outgoing: two

Incoming: Band for CGCCAGCAAUAUUACGGUAA ?
Outgoing: three

Incoming: Band for CCGCAGCAAUAUUACGUCGA ?
Outgoing: three

Incoming: Band for ACUCAGCAAUAUUACGAGCG ?
Outgoing: three

Incoming: Band for AAGAAGCAAUAUUACGUGGA ?
Outgoing: one
